- protocolNotes: Selectivity ratio of Kd for His6-tagged recombinant human ROCK2 to Kd for recombinant bovine PKAc
In this section we review reported Selectivity Index values for a set of molecules.
Number only, please.

{"columns": ["structureAsSmiles", "outcomeMeasure", "reading"],
 "data": [
  ["N=C(N)NCCC[C@@H](NC(=O)[C@@H](CCCNC(=N)N)NC(=O)CCCCCNC(=O)[C@@H](CCCCN)NC(=O)CCCCCCCN1CCCN(S(=O)(=O)c2cccc3cnccc23)CC1)C(N)=O", "Selectivity Index", 0.56]
]}

Next molecule, Selectivity Index to be filled in.
[Q] Entry under review: `N=C(N)NCCC[C@@H](NC(=O)[C@@H](CCCNC(=N)N)NC(=O)[C@@H](CCCNC(=N)N)NC(=O)[C@@H](CCCNC(=N)N)NC(=O)[C@@H](CCCNC(=N)N)NC(=O)[C@@H](CCCNC(=N)N)NC(=O)CCCCCNC(=O)[C@@H](CCCCN)NC(=O)CCCCCCCN1CCCN(S(=O)(=O)c2cccc3cnccc23)CC1)C(N)=O` . Reported Selectivity Index?
[A] 165

###

- protocolNotes: Displacement of fluorescent-ARC-583 from recombinant bovine PKAc by fluorescence anisotropy assay
- Design: species or system Bos taurus
pKd: −log10 of the molar value.
outcomeMeasure: pKd

{"columns": ["structureAsSmiles", "reading"],
 "data": [
  ["N=C(N)NCCC[C@@H](NC(=O)[C@@H](CCCNC(=N)N)NC(=O)[C@@H](CCCNC(=N)N)NC(=O)[C@@H](CCCNC(=N)N)NC(=O)[C@@H](CCCNC(=N)N)NC(=O)[C@@H](CCCNC(=N)N)NC(=O)CCCCCNC(=O)[C@@H](CCCCN)NC(=O)CNCC(=O)NCCNS(=O)(=O)c1cccc2cnccc12)C(N)=O", 6.89],
  ["N=C(N)NCCC[C@@H](NC(=O)[C@@H](CCCNC(=N)N)NC(=O)CCCCCNC(=O)[C@@H](CCCCN)NC(=O)CCCCCNC(=O)[C@H]1O[C@@H](n2cnc3c(N)ncnc32)[C@H](O)[C@@H]1O)C(N)=O", 8.05],
  ["N=C(N)NCCC[C@@H](NC(=O)[C@@H](CCCNC(=N)N)NC(=O)[C@@H](CCCNC(=N)N)NC(=O)[C@@H](CCCNC(=N)N)NC(=O)[C@@H](CCCNC(=N)N)NC(=O)[C@@H](CCCNC(=N)N)NC(=O)CCCCCNC(=O)[C@@H](CCCCN)NC(=O)CCNC(=O)CNCC(=O)NCCNS(=O)(=O)c1cccc2cnccc12)C(N)=O", 7.62],
  ["N=C(N)NCCC[C@@H](NC(=O)[C@@H](CCCNC(=N)N)NC(=O)[C@@H](CCCNC(=N)N)NC(=O)[C@@H](CCCNC(=N)N)NC(=O)[C@@H](CCCNC(=N)N)NC(=O)[C@@H](CCCNC(=N)N)NC(=O)CNCC(=O)NCCNS(=O)(=O)c1cccc2cnccc12)C(N)=O", 6.92]
]}

(a) N=C(N)NCCC[C@@H](NC(=O)[C@@H](CCCNC(=N)N)NC(=O)[C@@H](CCCNC(=N)N)NC(=O)[C@@H](CCCNC(=N)N)NC(=O)[C@@H](CCCNC(=N)N)NC(=O)[C@@H](CCCNC(=N)N)NC(=O)CCCCCNCCNS(=O)(=O)c1cccc2cnccc12)C(N)=O
(b) N=C(N)NCCC[C@@H](NC(=O)[C@@H](CCCNC(=N)N)NC(=O)CCCCCNC(=O)[C@@H](CCCCN)NC(=O)CNCC(=O)NCCNS(=O)(=O)c1cccc2cnccc12)C(N)=O
[Q] Which one would you say has the larger pKd value: a , or b ? Indicate which entry you chose by stating its label.
[A] a

###

- system: Rho-associated protein kinase 2 (Homo sapiens)
- protocolNotes: Displacement of fluorescent-ARC-1063 from His6-tagged recombinant human ROCK2 by luminescence intensity assay
Where a SMILES comes first, the peptide text is derived from it. [ ]: non-standard residue; d: D form. The star is where a group is joined. Adenosine(5'-uronoyl) = Nc1ncnc2c1ncn2[C@@H]1O[C@H](C(=O)*)[C@@H](O)[C@H]1O; X1 = Nc1nccc(-c2ccc(C(=O)*)s2)n1; Ahx = NCCCCCC(=O)O
outcomeMeasure: IC50 (nM)

Recorded results for 3 molecules are shown here.
{"columns": ["molecule", "unitInfo", "IC50"],
 "data": [
  ["NCCCC[C@@H](NC(=O)CCCCCNC(=O)c1ccc(-c2ccnc(N)n2)s1)C(=O)NCCCCCC(=O)N[C@H](CCCN=C(N)N)C(=O)N[C@H](CCCN=C(N)N)C(=O)N[C@H](CCCN=C(N)N)C(=O)N[C@H](CCCN=C(N)N)C(=O)N[C@H](CCCN=C(N)N)C(=O)N[C@H](CCCN=C(N)N)C(N)=O ({X1-Ahx}-[dK][Ahx][dR][dR][dR][dR][dR][dR]-NH2)", "nM", 2.75],
  ["N=C(N)NCCC[C@@H](NC(=O)[C@@H](CCCNC(=N)N)NC(=O)[C@@H](CCCNC(=N)N)NC(=O)[C@@H](CCCNC(=N)N)NC(=O)[C@@H](CCCNC(=N)N)NC(=O)[C@@H](CCCNC(=N)N)NC(=O)CCCCCNC(=O)[C@@H](CCCCN)NC(=O)CCCCCCCN1CCCN(S(=O)(=O)c2cccc3cnccc23)CC1)C(N)=O", "nM", 10.2],
  ["N=C(N)NCCC[C@@H](NC(=O)[C@@H](CCCNC(=N)N)NC(=O)[C@@H](CCCNC(=N)N)NC(=O)[C@@H](CCCNC(=N)N)NC(=O)[C@@H](CCCNC(=N)N)NC(=O)[C@@H](CCCNC(=N)N)NC(=O)CCCCCNC(=O)[C@@H](CCCCN)NC(=O)CCCCCNC(=O)[C@H]1O[C@@H](n2cnc3c(N)ncnc32)[C@H](O)[C@@H]1O)C(N)=O ({Adenosine(5'-uronoyl)-Ahx}-[dK][Ahx][dR][dR][dR][dR][dR][dR]-NH2)", "nM", 10.5]
]}

(P) NCCCC[C@@H](NC(=O)CCCCCCCN1CCCN(S(=O)(=O)c2cccc3cnccc23)CC1)C(=O)NCCCCCC(=O)N[C@H](CCCN=C(N)N)C(=O)N[C@H](CCCN=C(N)N)C(N)=O
(Q) NCCCC[C@@H](NC(=O)CCCCCNC(=O)[C@H]1O[C@@H](n2cnc3c(N)ncnc32)[C@H](O)[C@@H]1O)C(=O)NCCCCCC(=O)N[C@H](CCCN=C(N)N)C(=O)N[C@H](CCCN=C(N)N)C(N)=O
[Q] Dear colleague, could you let me know whether P or Q has the lower recorded IC50? Thanks. Indicate which entry you chose by stating its label.
[A] Q

###

- system: Rho-associated protein kinase 2 (Homo sapiens, UniProt O75116)
- Sequence (O75116 whole entry): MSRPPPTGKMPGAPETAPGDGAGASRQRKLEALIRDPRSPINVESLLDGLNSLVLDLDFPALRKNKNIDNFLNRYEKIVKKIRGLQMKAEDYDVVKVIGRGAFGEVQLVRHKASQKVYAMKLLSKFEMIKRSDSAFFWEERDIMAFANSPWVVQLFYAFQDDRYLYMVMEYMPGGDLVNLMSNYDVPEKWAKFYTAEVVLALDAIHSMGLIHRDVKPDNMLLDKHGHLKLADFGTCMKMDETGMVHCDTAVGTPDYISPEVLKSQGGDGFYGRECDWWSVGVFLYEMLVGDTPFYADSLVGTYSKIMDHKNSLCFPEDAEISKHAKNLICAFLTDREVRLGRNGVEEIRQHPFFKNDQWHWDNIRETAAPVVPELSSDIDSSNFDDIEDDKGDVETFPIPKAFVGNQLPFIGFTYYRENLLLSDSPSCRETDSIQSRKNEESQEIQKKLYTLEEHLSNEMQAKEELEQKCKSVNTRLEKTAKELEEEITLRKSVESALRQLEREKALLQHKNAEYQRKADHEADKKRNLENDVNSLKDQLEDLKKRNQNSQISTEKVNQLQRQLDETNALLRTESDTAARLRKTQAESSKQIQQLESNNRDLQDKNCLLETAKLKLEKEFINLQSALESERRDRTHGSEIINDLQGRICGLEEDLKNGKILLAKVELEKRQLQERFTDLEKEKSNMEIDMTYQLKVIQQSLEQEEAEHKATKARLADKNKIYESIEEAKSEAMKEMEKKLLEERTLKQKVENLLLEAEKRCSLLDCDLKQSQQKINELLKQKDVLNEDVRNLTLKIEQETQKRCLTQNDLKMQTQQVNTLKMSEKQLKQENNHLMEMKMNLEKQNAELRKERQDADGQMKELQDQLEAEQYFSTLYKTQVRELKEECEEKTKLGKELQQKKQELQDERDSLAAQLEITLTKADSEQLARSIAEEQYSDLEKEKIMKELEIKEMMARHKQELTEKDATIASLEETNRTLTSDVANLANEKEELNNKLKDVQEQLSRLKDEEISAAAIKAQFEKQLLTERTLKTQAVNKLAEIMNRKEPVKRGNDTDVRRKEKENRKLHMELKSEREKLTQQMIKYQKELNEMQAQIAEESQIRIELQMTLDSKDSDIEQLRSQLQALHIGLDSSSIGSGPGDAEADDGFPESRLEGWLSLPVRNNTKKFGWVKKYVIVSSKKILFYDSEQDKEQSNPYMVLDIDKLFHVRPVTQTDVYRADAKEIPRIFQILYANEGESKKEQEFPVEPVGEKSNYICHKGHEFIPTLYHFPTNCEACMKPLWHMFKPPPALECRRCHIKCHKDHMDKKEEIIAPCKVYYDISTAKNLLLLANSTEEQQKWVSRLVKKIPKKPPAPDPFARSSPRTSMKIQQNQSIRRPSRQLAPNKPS
- protocolNotes: Displacement of fluorescent-ARC-1042 from His6-tagged recombinant human ROCK2 by fluorescence anisotropy assay
outcomeMeasure: Kd (nM)

{"columns": ["structureAsSmiles", "outcomeMeasure", "unitInfo", "reading"],
 "data": [
  ["N=C(N)NCCC[C@@H](NC(=O)[C@@H](CCCNC(=N)N)NC(=O)[C@@H](CCCNC(=N)N)NC(=O)[C@@H](CCCNC(=N)N)NC(=O)[C@@H](CCCNC(=N)N)NC(=O)[C@@H](CCCNC(=N)N)NC(=O)CNCC(=O)NCCNS(=O)(=O)c1cccc2cnccc12)C(N)=O", "Kd", "nM", 6.4]
]}

(1) NCCCC[C@@H](NC(=O)CCCCCNC(=O)[C@H]1O[C@@H](n2cnc3c(N)ncnc32)[C@H](O)[C@@H]1O)C(=O)NCCCCCC(=O)N[C@H](CCCN=C(N)N)C(=O)N[C@H](CCCN=C(N)N)C(N)=O
(2) N=C(N)NCCC[C@@H](NC(=O)[C@@H](CCCNC(=N)N)NC(=O)CCCCCNC(=O)[C@H](CCCCN)NC(=O)CNCC(=O)NCCNS(=O)(=O)c1cccc2cnccc12)C(N)=O
[Q] Which one would you say has the larger Kd value: 1 , or 2 ? Indicate which entry you chose by stating its label.
[A] 2
(2: 690 nM, 1: 7 nM)

###

- system: Rho-associated protein kinase 2 (Homo sapiens, UniProt O75116)
- protocolNotes: Displacement of fluorescent-ARC-1042 from His6-tagged recombinant human ROCK2 by fluorescence anisotropy assay
outcomeMeasure: IC50 (µM)

Recorded results for 3 compounds are shown here.
{"columns": ["structureAsSmiles", "system", "outcomeMeasure", "unitInfo", "reading"],
 "data": [
  ["N=C(N)NCCC[C@@H](NC(=O)[C@@H](CCCNC(=N)N)NC(=O)[C@@H](CCCNC(=N)N)NC(=O)[C@@H](CCCNC(=N)N)NC(=O)[C@@H](CCCNC(=N)N)NC(=O)[C@@H](CCCNC(=N)N)NC(=O)CNCC(=O)NCCNS(=O)(=O)c1cccc2cnccc12)C(N)=O", "Rho-associated protein kinase 2 (Homo sapiens, UniProt O75116)", "IC50", "µM", 0.151],
  ["NCCCC[C@@H](NC(=O)CCCCCNC(=O)[C@H]1O[C@@H](n2cnc3c(N)ncnc32)[C@H](O)[C@@H]1O)C(=O)NCCCCCC(=O)N[C@H](CCCN=C(N)N)C(=O)N[C@H](CCCN=C(N)N)C(N)=O", "Rho-associated protein kinase 2 (Homo sapiens, UniProt O75116)", "IC50", "µM", 0.162],
  ["N=C(N)NCCC[C@@H](NC(=O)[C@@H](CCCNC(=N)N)NC(=O)[C@@H](CCCNC(=N)N)NC(=O)[C@@H](CCCNC(=N)N)NC(=O)[C@@H](CCCNC(=N)N)NC(=O)[C@@H](CCCNC(=N)N)NC(=O)CCCCCNC(=O)[C@@H](CCCCN)NC(=O)CNCC(=O)NCCNS(=O)(=O)c1cccc2cnccc12)C(N)=O", "Rho-associated protein kinase 2 (Homo sapiens, UniProt O75116)", "IC50", "µM", 0.0347]
]}

(I) N=C(N)NCCC[C@@H](NC(=O)[C@@H](CCCNC(=N)N)NC(=O)CCCCCNC(=O)[C@H](CCCCN)NC(=O)CNCC(=O)NCCNS(=O)(=O)c1cccc2cnccc12)C(N)=O
(II) N=C(N)NCCC[C@@H](NC(=O)[C@@H](CCCNC(=N)N)NC(=O)[C@@H](CCCNC(=N)N)NC(=O)[C@@H](CCCNC(=N)N)NC(=O)[C@@H](CCCNC(=N)N)NC(=O)[C@@H](CCCNC(=N)N)NC(=O)CCCCCNCCNS(=O)(=O)c1cccc2cnccc12)C(N)=O
[Q] Dear colleague, could you let me know whether I or II has the lower recorded IC50? Thanks. Indicate which entry you chose by stating its label.
[A] II
